assay: molar heat capacity at constant pressure; settings: 337.65 K; 101.33 kPa; Liquid; Small sample (50 mg) DSC
REPORTED_ENDPOINT: molar heat capacity at constant pressure (J/K/mol)

1) BrCCCCCCCCBr | 321.81
2) BrCCCCCCCCCCCBr | 415.68
3) BrCCCCCCCCCCCCBr | 448.04
4) BrCCCCCCCCCBr | 352.78

---

assay: molar heat capacity at constant pressure; conditions: 345.15 K; 101.33 kPa; Liquid; Small sample (50 mg) DSC
REPORTED_ENDPOINT: molar heat capacity at constant pressure (J/K/mol)

1. BrCCCCCCCCCCCCBr | 452.43
2. BrCCCCCCCCCBr | 356.29
3. BrCCCCCCCCBr | 324.72
4. BrCCCCCCCCCCCBr | 419.88

The reported measurements were obtained from the NIST ThermoML archive (doi:10.1021/je201002j).
